Measured on: human TLR8 (Homo sapiens)
Construct: expressed in transfected cells
Sequence (Q9NR97 27-1041): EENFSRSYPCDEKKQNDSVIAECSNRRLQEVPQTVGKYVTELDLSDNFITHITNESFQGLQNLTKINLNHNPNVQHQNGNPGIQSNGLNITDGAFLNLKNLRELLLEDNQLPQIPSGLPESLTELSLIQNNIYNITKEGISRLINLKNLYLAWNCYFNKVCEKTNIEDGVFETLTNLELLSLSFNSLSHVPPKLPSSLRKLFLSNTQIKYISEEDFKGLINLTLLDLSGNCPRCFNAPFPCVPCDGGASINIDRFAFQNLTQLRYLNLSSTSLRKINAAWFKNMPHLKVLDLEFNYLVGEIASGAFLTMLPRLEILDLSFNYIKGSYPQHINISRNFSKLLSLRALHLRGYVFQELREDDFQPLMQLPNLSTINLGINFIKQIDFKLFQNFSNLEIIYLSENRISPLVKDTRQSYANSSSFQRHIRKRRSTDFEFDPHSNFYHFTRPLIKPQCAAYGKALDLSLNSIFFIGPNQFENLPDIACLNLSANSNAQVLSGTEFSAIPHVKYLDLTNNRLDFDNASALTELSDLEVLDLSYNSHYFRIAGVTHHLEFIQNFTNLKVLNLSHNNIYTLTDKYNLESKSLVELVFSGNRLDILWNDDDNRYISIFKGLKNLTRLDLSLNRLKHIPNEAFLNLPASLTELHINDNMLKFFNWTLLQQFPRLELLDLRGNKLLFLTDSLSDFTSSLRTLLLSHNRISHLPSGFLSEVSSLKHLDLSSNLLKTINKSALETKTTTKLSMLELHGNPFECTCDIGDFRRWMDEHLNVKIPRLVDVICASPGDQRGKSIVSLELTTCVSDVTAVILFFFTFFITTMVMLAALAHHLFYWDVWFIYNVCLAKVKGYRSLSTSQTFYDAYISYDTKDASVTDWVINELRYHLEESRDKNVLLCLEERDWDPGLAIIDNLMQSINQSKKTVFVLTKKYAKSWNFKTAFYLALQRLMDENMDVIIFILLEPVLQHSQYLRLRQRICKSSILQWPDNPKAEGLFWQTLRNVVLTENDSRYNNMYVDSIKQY
Experimental protocol: HEK-Blue hTLR8 SEAP reporter gene inhibition assay
Assay type: cell-based
Assay conditions: hTLR8 HEK-Blue cells, TLR8 ligand 10 µM, 20 hours, SEAP by Quanti-blue; class symbols; read-out: HEK-Blue hTLR8 IC50
Assay metric: IC50

Molecule: COC(=O)C1(CN2Cc3nn4c(c3C[C@@H]2C)CN(c2ccc(C#N)n3ncc(F)c23)C[C@H]4C)CC1 [Example I-192]
Measured on: human TLR8 (Homo sapiens)
IC50: < 100 nM

Molecule: C[C@@H]1CN(c2ccc(C#N)n3ncc(F)c23)Cc2c3c(nn21)C[C@@](C)(N1CCC(O)C1)CC3 (stereo partly drawn) [Example I-188]
Measured on: human TLR8 (Homo sapiens)
IC50: < 100 nM

Molecule: C[C@@H]1Cc2c(nn3c2CN(c2ccc(C#N)n4ncc(F)c24)C[C@H]3C)[C@H](C)N1CC(N)=O [Example I-165]
Measured on: human TLR8 (Homo sapiens)
IC50: > 100 nM

Molecule: C[C@@H]1CN(c2ccc(C#N)n3ncc(F)c23)Cc2c3c(nn21)CN(Cc1cn[nH]c1)[C@@H](C)C3 [Example I-137]
Measured on: human TLR8 (Homo sapiens)
IC50: < 100 nM

Molecule: C[C@@H]1CN(c2ccc(C#N)n3ncc(F)c23)Cc2c3c(nn21)CNCC3CO (stereo partly drawn) [Example I-40]
Measured on: human TLR8 (Homo sapiens)
IC50: < 100 nM

Please state IC50 for every molecule in the list that follows.
1. CC(C)C1Cc2c(nn3c2CN(c2ccc(C#N)n4ncc(F)c24)C[C@H]3C)CN1 (stereo partly drawn) [Example I-60]
2. CC1Cc2c(nn3c2CN(c2ccc(C#N)n4ncc(F)c24)C[C@H]3C)C(C)N1 (single isomer, unassigned) [Example I-88b]
3. CC1Cc2c(nn3c2CN(c2ccc(C#N)n4ncc(F)c24)C[C@H]3C)CN1 (stereo partly drawn) [Example I-30]
4. C[C@@H]1Cc2c(nn3c2CN(c2ccc(C#N)n4ncc(F)c24)C[C@H]3C)[C@H](C)N1 [Example I-59]
5. C[C@@H]1Cc2c(nn3c2CN(c2ccc(C#N)n4ncc(F)c24)C[C@H]3C)CN1 [Example I-30b]
6. C[C@@H]1CN(c2ccc(C#N)n3ncc(F)c23)Cc2c3c(nn21)C(CO)CNC3 (stereo partly drawn) [Example I-35]
7. COC[C@@H]1Cc2c(nn3c2CN(c2ccc(C#N)n4ncc(F)c24)C[C@H]3C)CN1 [Example I-85]

## Output
> 100 nM
> 100 nM
< 100 nM
> 100 nM
< 100 nM
< 100 nM
< 100 nM

Please state IC50 for every molecule in the list that follows.
1. C[C@@H]1CN(c2ccc(C#N)n3ncc(F)c23)Cc2c3c(nn21)CC(N)CCC3 (stereo partly drawn) [Example I-214]
2. CC1CNCc2c1nn1c2CN(c2ccc(C#N)n3ncc(F)c23)C[C@H]1C (stereo partly drawn) [Example I-12]
3. C[C@@H]1CN(c2ccc(C#N)n3ncc(F)c23)Cc2c3c(nn21)CNC(c1ccn[nH]1)C3 (stereo partly drawn) [Example I-68]
4. C[C@H]1NCCc2c1nn1c2CN(c2ccc(C#N)n3ncc(F)c23)C[C@H]1CF [Example I-87]
5. CCC1CN(c2ccc(C#N)n3ncc(F)c23)Cc2c3c(nn21)CNCC3 (stereo not drawn) [Example I-17]

## Output
["< 100 nM", "< 100 nM", "< 100 nM", "< 100 nM", "> 100 nM"]

## Input Enter reported IC50 observed with human TLR8 (Homo sapiens) for C[C@@H]1CN(c2ccc(C#N)n3ncc(F)c23)Cc2c3c(nn21)CN(CC(=O)N1CCOCC1)[C@@H](C)C3 [Example I-139]
## Output > 100 nM
